Target: Cytochrome P450 2C9 (Homo sapiens) (UniProt P11712)
Sequence (P11712 whole entry, looked up): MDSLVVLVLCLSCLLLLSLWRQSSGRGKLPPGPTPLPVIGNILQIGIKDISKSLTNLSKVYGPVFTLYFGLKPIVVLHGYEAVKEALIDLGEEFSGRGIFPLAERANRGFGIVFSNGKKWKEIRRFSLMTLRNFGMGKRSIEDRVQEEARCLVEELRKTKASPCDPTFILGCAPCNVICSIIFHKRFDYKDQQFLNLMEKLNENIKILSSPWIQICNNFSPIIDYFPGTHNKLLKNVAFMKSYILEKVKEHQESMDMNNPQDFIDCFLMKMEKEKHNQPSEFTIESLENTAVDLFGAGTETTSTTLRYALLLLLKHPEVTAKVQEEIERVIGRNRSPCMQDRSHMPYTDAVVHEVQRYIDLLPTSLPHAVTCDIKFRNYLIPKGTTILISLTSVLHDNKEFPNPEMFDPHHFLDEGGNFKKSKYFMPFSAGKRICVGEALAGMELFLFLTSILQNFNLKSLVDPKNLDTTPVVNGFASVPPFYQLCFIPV
Test: Cytochrome panel assay with activity outcomes
Conditions: recombinant CYP, pro-luciferin dealkylation, luminescence, p450-cyp2c9; series mostly up to 57.1 µM
Description: The P450 gene superfamily is involved in the metabolism and clearance of xenobiotics. This assay used various human CYP P450 isozymes to measure the dealkylation of various pro-luciferin substrates to luciferin. The luciferin is then measured by luminescence after the addition of a luciferase detection reagent. […] Inhibitors and some substrates limit the production of luciferin, and decrease measured luminescence. […] 8, Detection, 1 sec, ViewLux luminescent read […]
In all, about 16,000 compounds went through this assay and about 4,000 (25%) were called active. Another 26% or so got no clear call; they are omitted. Calls follow the shape of the dose curve; as a rule, active = well fitted curve in the direction sought with a large enough effect; inconclusive = small, poorly fitted or top-dose-only effect, or effect the other way; inactive = no such curve, though single readings can be large or run the other way. Only a sample is shown.
Your response should consist of one outcome taken from yes = active, no = inactive

[[record]]
compound = "O=S(=O)(c1ccccc1)N1N=C(c2cccs2)CC1c1ccc(Br)cc1 (centres undefined)"
label_class = "yes"

[[record]]
compound = "O=C(COc1cccc2ccccc12)N1c2ccccc2CCc2ccccc21"
label_class = "yes"

[[record]]
compound = "O=C(c1cnccn1)N1CCC2(CC1)CCN(c1ccccc1)CC2"
label_class = "no"


Shifting focus to the compound that follows.
Q: Outcome? COc1ccc(CCn2c(=N)c(C(=O)NCc3ccco3)cc3c(=O)n4ccccc4nc32)cc1
A: yes

* * *

Target: Cytochrome P450 2C9 (Homo sapiens)
Assay: Cytochrome panel assay with activity outcomes
Conditions: recombinant CYP, pro-luciferin dealkylation, luminescence, p450-cyp2c9; series mostly up to 57.1 µM
Screen size: about 16,000 compounds; about 4,000 (25%) were called active. Inconclusive results (about 26%) are left out. Calls come from the whole dose curve; as a rule, active = well fitted curve in the direction sought with a large enough effect; inconclusive = small, poorly fitted or top-dose-only effect, or effect the other way; inactive = no such curve, though single readings can be large or run the other way. A selection follows.
Pick one: active, inactive

Worked set:
[[record]]
compound = "CC(C)CC1NC(=S)N(C2CCCCC2)C1=O (centres undefined)"
label_class = "active"

[[record]]
compound = "Cn1cccc1C(=O)N1CCC[C@@]2(CCN(c3ccccc3)C2)C1"
label_class = "inactive"


Now for another entry.
Q: Assay result, entry O=C(COc1ccc(Cl)cc1)N1CCN(Cc2ccc3c(c2)OCO3)CC1 — outcome?
A: inactive

* * *

Target: Cytochrome P450 2C9 (Homo sapiens) (UniProt P11712)
Assay: Cytochrome panel assay with activity outcomes
Conditions: recombinant CYP, pro-luciferin dealkylation, luminescence, p450-cyp2c9; series mostly up to 57.1 µM
About 4,000 (25%) of roughly 16,000 compounds were called active. Inconclusive results (about 26%) are left out. Calls come from the whole dose curve; as a rule, active = well fitted curve in the direction sought with a large enough effect; inconclusive = small, poorly fitted or top-dose-only effect, or effect the other way; inactive = no such curve, though single readings can be large or run the other way. The list is a sample of the results.
Outcome field: choose from y = active, n = inactive

[[record]]
compound = "O=S(=O)(c1ccccc1)N1CCC2(CCN(Cc3nccs3)CC2)CC1"
label_class = "n"

[[record]]
compound = "O=C(NCCN1CCOCC1)c1ccc2ccccc2c1"
label_class = "n"

[[record]]
compound = "Cc1cccc(C)c1NC(=O)COc1cccc(/C=N/NC(=O)C(=O)NCc2ccccc2)c1"
label_class = "n"


Please examine the following record next.
Q: Fill in: this test's call for COc1cccc(NC(=O)CSc2nc3ccccc3cc2Cc2ccccc2)c1 is ___
A: y

* * *

Below, each of the molecules is paired with its reported activity, negative = inhibition value.
Target: Cytochrome P450 2C9 (Homo sapiens)
Assay: Cytochrome panel assay with activity outcomes; as to activity, negative = inhibition: % is scaled to controls: 0 for no effect and ±100 for the full control effect
Settings: recombinant CYP, pro-luciferin dealkylation, luminescence, p450-cyp2c9; series mostly up to 57.1 µM
Among all 16,000 compounds or so, about 4,000 (25%) were called active. Not shown: some 26% with an inconclusive outcome. The list is a sample of the results.

[[record]]
smiles_entry = "N/N=C1/CC(=O)NC(=O)N1"
result = "28.1% [at 11.4 µM] (inactive)"

[[record]]
smiles_entry = "Cn1c(=O)c2[nH]c(CCS)nc2n(C)c1=O"
result = "10.4% [at 11.4 µM] (inactive)"


Q: Specify the recorded activity, negative = inhibition for N[C@H](C(=O)O)[C@H](N)C(=O)O , system: Cytochrome P450 2C9 (Homo sapiens).
A: 17.2% [at 11.4 µM] (inactive)

Q: Fill: activity, negative = inhibition (Cytochrome P450 2C9 (Homo sapiens)) for this molecule Cc1cccc(CNc2ncncc2-c2ccccc2Cl)c1
A: 7.19% [at 2.29 µM] (inactive)

Q: Specify activity, negative = inhibition for O=C(O)C1(Nc2ccc(Cl)cc2)CCCC1 , system Cytochrome P450 2C9 (Homo sapiens).
A: -21.4% [at 11.4 µM] (inactive)

Q: Output reported activity, negative = inhibition of the molecule NC(N)=NC(N)=Nc1ccc(S(N)(=O)=O)cc1 on Cytochrome P450 2C9 (Homo sapiens).
A: -4.01% [at 11.4 µM] (inactive)

Q: Fill: activity, negative = inhibition (Cytochrome P450 2C9 (Homo sapiens)) for this molecule N=C(N)SCCSC(=N)N
A: -1.93% [at 11.4 µM] (inactive)

Q: Print Cytochrome P450 2C9 (Homo sapiens) activity, negative = inhibition for Cc1c(C(=O)O)nc(/C=C\C(=O)O)[nH]c1=O .
A: -11.9% [at 11.4 µM] (inactive)
